Where do these numbers come from? They come from ChEMBL document CHEMBL4483862.

System: Plasmodium berghei
measurement-notes: Luciferase/luciferin-expressing antifolate-resistant parasites were used to infect a culture of HepG2 cells that were pre-incubated with compounds. Infected hepatocytes emit light due to the luciferase reaction. Assay results are presented as the percent inhibition of light emission compared to control. […]
Type: functional
stated-conditions: sporozoite, read-out: LUCIFERASE INFECTION ASSAY - IC90
Give IC90 for every item shown.

Here's what some known entries look like.
Q: Which value of IC90 has been reported for `Cc1ccc(-c2cnc(N)c(-c3ccc(C(=O)NCCN(C)C)cc3)c2)cc1` in the records?
Ans: > 8.81 µM

Q: Same lookup for `O=C(OCc1cnn(-c2ccccc2)c1)c1cc([N+](=O)[O-])ccc1N1CCCC1` , please.
Ans: > 10 µM

Q: Request: `O=C(Nc1ncccc1O)c1ccc(CN2C(=O)c3ccccc3S2(=O)=O)cc1`
Ans: > 10 µM

For each listed entry, give its IC90.
1. CC(C)(C)C(=O)Nc1ccc([N+](=O)[O-])cc1C#N
2. O=C(c1ccco1)N(Cc1nccs1)c1ccc(-c2ccccc2)cc1
3. O=C(Nc1cccc(Cl)c1)N1CCN(C(=O)c2ccoc2)CC1
4. CSc1nc(N/C=C2/C(=O)c3ccccc3N(C)S2(=O)=O)nc(N(C)C)n1
5. COc1cc2c(C#N)c(N3CCN(c4ccccc4OC)CC3)nc(N)c2c(N)n1
6. CC(NC(=O)c1ccccc1NC(=O)CSc1ccc2c3c(cccc13)CC2)c1ccccc1 (stereo not given)
7. Cc1cc(Cl)c(C)c(S(=O)(=O)N(C)C(C)c2ccc(S(N)(=O)=O)cc2)c1Cl (stereo not given)
8. CN1CCN(S(=O)(=O)c2ccc(N3CCC(c4nc5ccccc5s4)CC3)nc2)CC1

Ans:
1: 4.31 µM; 2: > 9.16 µM; 3: > 10 µM; 4: > 8.12 µM; 5: 4.7 µM; 6: > 10 µM; 7: > 10 µM; 8: > 10 µM
